Sourced from the nanobody polyreactivity screen of Harvey et al. (2022)

- measurement_description: yeast display, Sf9 membrane polyspecificity reagent, FACS + sequencing; frameworks hold sequencing errors
parameter: polyreactivity (PSR sort gate)

Use these answered entries as a reference point.
macromolecule_sequence | polyreactivity (PSR sort gate)
QVQLVEYGGGLVQAGGSLRLSCADSGRIFDVYAMGWYRQAPGKERELVARISDGGGSTYYADSVKGRFTISRDNAKNTVYLKMNSLKPEDTAVYYCAAGGDLRLDRRFAFVSRGDYWGQGTQVTVSS | low polyreactivity
QVQLVESGGGLVQAGGSLRLSCAASGFTFPFYAMGWYRQAPGKERELVAAITSRGGSTYYADSVKGRFTISRDNAKNTVYLQMNSLKPEDTAVYYCAADESGADYYYWGQGTQVTVSS | high polyreactivity
QVQLVESGGGLVQAGGSLRLSCAASGSIFYQNAMGWYRQAPGKEREFVAAIRSSGSSTYYADSVKGRFTISRDNAKNTVYVQMNCLKPEDTAVYYCAADNPGGYRGKVDYWGQGTQVTVSS | high polyreactivity
QVQLVESGGGLVQAGGSLRLSCAASGFTFFPYAMGWYRQAPGKEREFVAANFSDGSTYYADSVKGRFTISRDNAKNTVYLQINILKPEDTAVYYWAAAWYEQAYQTGYFEFDYWGLGTQVTVSS | low polyreactivity

// switching to the query sequence
polyreactivity (PSR sort gate) recorded for this sequence, QVHLGESGGGLVQAGGSLRLSGAASGFTFAVNAMGWYRQAPWNERELVAGITSGGRTNYADSVKGRFTISRDNAKNTVYLQMTSLKPEVTAVYYCAAARRYSKGYVPPYYKYRYDYWGQGTHVTVSS , is high polyreactivity

====

- measurement_description: yeast display, Sf9 membrane polyspecificity reagent, FACS + sequencing; frameworks hold sequencing errors

macromolecule_sequence | polyreactivity (PSR sort gate)
QVHLVESGGGLVQAGGSLRLSCAASGSIFKYYAMGWYRQAPGKETELVAAISSGGTTNYADSVKGRFTISRDNAKNTVYFQMNSLKPEDTEVYYCAAYSTYFRRRKWGYDYWGQGTQVTVSS | high polyreactivity
QVQHVESGGGLVQAGGSLRLSCAASGSILGVNAMGWYRQAPGKERELVAAISRTGGTTYYADSVKGRFTISRDNAKNTVYLQMHSLKPEDTAVYYCAGDVVFTSVPTGYLGYEYWGQGTQVTVSS | high polyreactivity
QVQHVESRGGLVQAGGSLRLSCAASGFTFYLNAKGWYRQAPGKVRELVAAISYSDGSTYYADSVKGRFTISRDNAKNTVYLQMNSLIPEDTAVYYCAADTTDPGGAYQLMEYWGQGTQVTVSS | high polyreactivity

====

- measurement_description: yeast display, Sf9 membrane polyspecificity reagent, FACS + sequencing; frameworks hold sequencing errors
parameter: polyreactivity (PSR sort gate)

Use these answered entries as a reference point.
macromolecule_sequence | polyreactivity (PSR sort gate)
QVQLVESGGGLVQAGGSLRLSCAASGFTFGSNTMGWYRQAPGKERELVAAITTSGDSTYYADSVKGRFTISRDNAKNTVYLQMNSLKPEDTAVYYCAARTYYQGGYYYWGPGTQVTVSS | high polyreactivity
QVQHVESGGGLVQAGGSLRLSCAASGRTFAKYAMRWSRQAPGKERELVAAIRWSGGSTYYADSVKGRFTISRDNAKNTVYLQMNSLKPEDTAVYYCAARPALWGRYRGYDYWGQGTQVTVSS | high polyreactivity
QVQLVESGGGLVQAGGSLRLSCAASGSTFIFYTMGWYRQAPGKERELVAAITSNGGSTYYADSVKGRFTISRDNAKNTVYFQMNSLKPEDTAVYYCARVDRWRRYRYIFSGYDYWGQGTQVTVSS | high polyreactivity
QVQLVESGGGLVQAGGSLRLSCAASGNIFTTYAMGWYRQAPGKERELVAAISRTGGRTSYADSVKGRFTISRDNAKNTVYLEMNSLKPVDTAVYYCADTLWRQSNLEYWGQGTQVTVSS | high polyreactivity

polyreactivity (PSR sort gate) recorded for this sequence, QVQLVESVGGLVQAGGSLRLSCAASGSIFGDNAMGWYRQAPGKERELVAAITWRGGSTYYADSVKGRFTISRDNAKNTVYLQMNSLKPEDTAVYYCATDSRSHRDYWGQGTQVTVSS , is low polyreactivity

polyreactivity (PSR sort gate) recorded for this sequence, QVQLVESGGGLVQAGGSLRLSCAASGSTFDGYAMGWYRQAPGKERELVASISWDDVRTYYADSVKGRFTISRDNAKNTVYLQMNSLKPEDTAVYDCAKGDIEYFWSRIYGYWGQGTQVTVSS , is low polyreactivity

polyreactivity (PSR sort gate) recorded for this sequence, QVQLVESGGGLVQAGGSLRLSCAASGSTFSPNAMGWYRQAPGKERELVAAITYRGANTYYADSVKGRFTISRDNAKNTVYLQMNSLKPEDTAVYYCAAEYAYHHVGFGYWGQGTLVTVSS , is low polyreactivity

polyreactivity (PSR sort gate) recorded for this sequence, QVQLVESGGGLVQAGGSLRLSCAASGSIFFSNDMGWYRQAPGKERELVASITRDGTSTYADSVKGRFTISRDNAKNTVYLQMNSLKPEETAVYYCAADRYLQGFYGRWHGYDSWGQGTQVTVSS , is low polyreactivity

polyreactivity (PSR sort gate) recorded for this sequence, QVQLVESGGGLVQAGGSLRLSCAASGRTFKIYAMGWYRQAPGKEREFVASINWSGGITYYADSVKGRFTISRDNAKNTVYLQMNSLKPEDTAVYYCAARIDSSRIGKRFYYWGQGTQVTVSS , is high polyreactivity

polyreactivity (PSR sort gate) recorded for this sequence, QVQLVESGGGLVQAGGSLRLSCAASGFTFAANTMGWYRQAPGKERELVADISGRGDRTSYADSVKGRFTISRDNAKNTVYLQMNSLKPEDTSVYYCAVDIYYYSNVHYYYWGQGTQVTVSS , is low polyreactivity

polyreactivity (PSR sort gate) recorded for this sequence, QVQLGESGGGLVQAGGSLRLSCAASGRTFDYYAMGWYRQAPGKEWQLVAAISGSGGTTYYADSVKGRFTISRENAKNTVYLQMNSLKAEDTAVYNCDTVRSRLFGQYYYWGQCTQVTVSS , is high polyreactivity

polyreactivity (PSR sort gate) recorded for this sequence, QVQLVESGGWLVQAGGSLRLRCAASGRIFSRYAMGWYRQAPGKEWELVAAISWSGGSTYYADSVKGRFTISRDNAKNTVYLQMNSLKPEDTAVYYCAAKRQYTEYNYWGQGSQVTVSS , is high polyreactivity

polyreactivity (PSR sort gate) recorded for this sequence, QVQVVESGGGLVQAGGSLRLSCAASGRTFYPYAMGWYRQAPGKERELVAAISSSGGSTYYADSVKGRFTISRDNAKNTDYLPMNSLKPEDTAVYYCAAVASKYKYTGGMDYWGQGTQVTVSS , is high polyreactivity

polyreactivity (PSR sort gate) recorded for this sequence, QLQLVESGGGLVQAGGSLRLSCAASGRIFYYYTMGWYRQAPGKERELVARITGLTGRTYYADSVKGRFTISRDNAKNTVYLQMNSLKPEDTAVYYCNAVLGYYTYDYWGQGTQVTVSS , is high polyreactivity

polyreactivity (PSR sort gate) recorded for this sequence, QDQLVESVGGLVQAGGSLRLSCAASGRIVKYAMGWYRQAPGKERELVAAISGSGGTTYYADSVKWRFTISRDNAKNTVYLQMNSQKPEDTAVYYCNKTPRNLRILQHSSQSMDYWGQGTQVTVSS , is high polyreactivity

polyreactivity (PSR sort gate) recorded for this sequence, QVQLVESGGGLVQAGGRLRLSCAASGRTFLYYAMGWSRQAPGKERELVAAINWRGTRTYYADSVKGRFTISRDNAQNTVYLQMNSLKPEDTAVYYCNRQGPDFHLRAGQGNYWGQGTQVTVSS , is high polyreactivity
